Measured Emax of individual entries
TARGET_OR_SYSTEM: SIRT1 (Homo sapiens)
Sequence (Q96EB6 whole entry): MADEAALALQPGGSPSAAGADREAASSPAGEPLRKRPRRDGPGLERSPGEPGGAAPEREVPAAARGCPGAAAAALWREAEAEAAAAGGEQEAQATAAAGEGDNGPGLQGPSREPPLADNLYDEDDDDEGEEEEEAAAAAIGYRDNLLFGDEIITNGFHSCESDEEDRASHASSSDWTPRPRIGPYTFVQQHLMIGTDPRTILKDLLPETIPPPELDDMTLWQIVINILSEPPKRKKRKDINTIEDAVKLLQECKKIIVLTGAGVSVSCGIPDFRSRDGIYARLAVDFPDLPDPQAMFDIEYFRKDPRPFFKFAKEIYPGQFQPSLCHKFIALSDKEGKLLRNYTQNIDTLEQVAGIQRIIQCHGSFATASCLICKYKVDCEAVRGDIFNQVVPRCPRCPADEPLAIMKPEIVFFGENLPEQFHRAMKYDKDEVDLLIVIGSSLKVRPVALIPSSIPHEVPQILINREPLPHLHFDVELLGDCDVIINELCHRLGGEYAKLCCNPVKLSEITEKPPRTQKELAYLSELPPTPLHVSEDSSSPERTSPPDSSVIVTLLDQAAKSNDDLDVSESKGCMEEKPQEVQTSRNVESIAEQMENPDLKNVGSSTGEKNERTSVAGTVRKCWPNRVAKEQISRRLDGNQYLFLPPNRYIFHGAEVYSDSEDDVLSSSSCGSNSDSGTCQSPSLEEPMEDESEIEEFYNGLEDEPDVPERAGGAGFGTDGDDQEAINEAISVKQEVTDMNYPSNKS
TEST_DESCRIPTION: TAMRA based mass spectrometry assay of SIRT1 activity
Assay type: biochemical
ASSAY_CONTEXT: TAMRA assay; percent maximum fold activation; read-out: TAMRA % Fold Act

| COMPOUND | TARGET_OR_SYSTEM | Emax |
| --- | --- | --- |
| O=C(Nc1cnc(OCC(O)CO)cn1)c1cnc2ccc(-c3ccccc3C(F)(F)F)nn12 (centres unmarked) | SIRT1 (Homo sapiens) | ≥ 350% |
| Cc1nn2ccc(-c3ccccc3C(F)(F)F)nc2c1C(=O)Nc1ccncc1F | SIRT1 (Homo sapiens) | ≥ 350% |
| CCOc1ccc(NC(=O)c2c(C)nc3ccc(-c4ccccc4F)nn23)nn1 | SIRT1 (Homo sapiens) | < 350% |
| Cc1cccc(NC(=O)c2cnn3ccc(-c4ccccc4OC(F)(F)F)nc23)n1 | SIRT1 (Homo sapiens) | ≥ 350% |
| Cc1cc(C)nc(C(=O)Nc2cnc3ccc(-c4ccccc4C(F)(F)F)nn23)n1 | SIRT1 (Homo sapiens) | ≥ 350% |

// query Emax value for entry `O=C(Nc1cccc(N2CCOCC2)n1)c1cnn2ccc(-c3ccccc3C(F)(F)F)nc12`
≥ 350%

// query Emax value for entry `Cc1cnc(NC(=O)c2c(C)nc3ccc(-c4ccccc4OC[C@H](O)CO)nn23)s1`
≥ 350%

// query Emax value for entry `COc1cncnc1NC(=O)c1c(C)nc2ccc(-c3ccccc3C(F)(F)F)nn12`
≥ 350%

// query Emax value for entry `N#Cc1ccccc1-c1ccc2ncc(C(=O)Nc3cnccn3)n2n1`
< 350%

// query Emax value for entry `CCOc1ccc(NC(=O)c2c(C)nc3ccc(-c4ccccc4C)nn23)nn1`
< 350%

// query Emax value for entry `Cc1nc2ccc(-c3ccccc3C(F)(F)F)nn2c1C(=O)Nc1ccnn1C(C)(C)C`
< 350%
